Tested on: primary hepatocytes (PHGH)
assay-overview: cellular survival of PHGH, Trypan Blue exclusion
Format: cell-based, mice
Design: unit of the concentration uncertain
condition-set: 50 (unit uncertain); 1 h treatment + 24 h normal medium; Trypan Blue (Table 4)
Below, each of the compounds is paired with its reported % vitality of the cells, PHGH 1 + 24 h value.
readout-label: % vitality of the cells, PHGH 1 + 24 h (%)

[[record]]
compound = "c1ccc2c(c1)cc1ccc3cccc4ccc2c1c34"
readout_label = "% vitality of the cells, PHGH 1 + 24 h"
result_value = 50

[[record]]
compound = "O=[N+]([O-])c1ccc(Cl)c([N+](=O)[O-])c1"
readout_label = "% vitality of the cells, PHGH 1 + 24 h"
result_value = 5

[[record]]
compound = "Oc1c(Cl)c(Cl)c(Cl)c(Cl)c1Cl"
readout_label = "% vitality of the cells, PHGH 1 + 24 h"
result_value = 10

[[record]]
compound = "Oc1c(Cl)c(Cl)c(O)c(Cl)c1Cl [TCHQ, TetraChloroHydroQuinone]"
readout_label = "% vitality of the cells, PHGH 1 + 24 h"
result_value = 50


----------
System: primary hepatocytes (PHGH)
assay-overview: cellular survival of PHGH, Trypan Blue exclusion
Type: cell-based, mice
Design: unit of the concentration uncertain
condition-set: 50 (unit uncertain); 5 h treatment + 24 h normal medium; Trypan Blue (Table 4)
readout-label: % vitality of the cells, PHGH 5 + 24 h (%)

[[record]]
compound = "Oc1c(Cl)c(Cl)c(Cl)c(Cl)c1Cl [PCP, PentaChloroPhenol]"
system_tested = "primary hepatocytes (PHGH)"
readout_label = "% vitality of the cells, PHGH 5 + 24 h"
unit_text = "%"
result_value = 10

[[record]]
compound = "O=[N+]([O-])c1ccc(Cl)c([N+](=O)[O-])c1 [CDNB, 1-Chloro-2,4-DiNitro-Benzene]"
system_tested = "primary hepatocytes (PHGH)"
readout_label = "% vitality of the cells, PHGH 5 + 24 h"
unit_text = "%"
result_value = 5

[[record]]
compound = "c1ccc2c(c1)cc1ccc3cccc4ccc2c1c34 [BaP, Benzo(a)Pyrene]"
system_tested = "primary hepatocytes (PHGH)"
readout_label = "% vitality of the cells, PHGH 5 + 24 h"
unit_text = "%"
result_value = 30

[[record]]
compound = "Oc1c(Cl)c(Cl)c(O)c(Cl)c1Cl [TCHQ, TetraChloroHydroQuinone]"
system_tested = "primary hepatocytes (PHGH)"
readout_label = "% vitality of the cells, PHGH 5 + 24 h"
unit_text = "%"
result_value = 60


----------
// reported % vitality of the cells, MMH/GH 1 + 24 h per item
Tested on: MMH/GH5 cells
assay-overview: cellular survival of MMH/GH5, Trypan Blue exclusion
Assay type: cell-based, mice
Parameters: unit of the concentration uncertain
condition-set: 50 (unit uncertain); 1 h treatment + 24 h normal medium; Trypan Blue (Table 4)
readout-label: % vitality of the cells, MMH/GH 1 + 24 h (%)

[[record]]
compound = "c1ccc2c(c1)cc1ccc3cccc4ccc2c1c34"
system_tested = "MMH/GH5 cells"
result_value = 90

[[record]]
compound = "Oc1c(Cl)c(Cl)c(Cl)c(Cl)c1Cl"
system_tested = "MMH/GH5 cells"
result_value = 90

[[record]]
compound = "Oc1c(Cl)c(Cl)c(O)c(Cl)c1Cl [TCHQ, TetraChloroHydroQuinone]"
system_tested = "MMH/GH5 cells"
result_value = 50

[[record]]
compound = "O=[N+]([O-])c1ccc(Cl)c([N+](=O)[O-])c1"
system_tested = "MMH/GH5 cells"
result_value = 70

